Test system: Escherichia coli
experimental.details: Antibacterial activity against extended-spectrum beta-lactamase-producing Escherichia coli 14-2 after 18 to 24 hrs by CLSI M100-S11 method
Format: functional
Recorded MIC by entry

C[C@H]1COc2c(N3CCN(C)CC3)c(F)cc3c(=O)c(C(=O)O)cn1c23.C[C@H]1COc2c(N3CCN(C)CC3)c(F)cc3c(=O)c(C(=O)O)cn1c23.O	8 µg/mL

Find the measured MIC of CCO/N=C1\CN(c2nc3c(cc2F)c(=O)c(C(=O)O)cn3-c2nc(N)c(F)cc2F)[C@H]1CN and report it.
> 128 µg/mL

Supply measured MIC of NCC1CN(c2nc3c(cc2F)c(=O)c(C(=O)O)cn3-c2nc(N)c(F)cc2F)C/C1=N\OCc1ccccc1 (stereo not drawn) in your reply.
128 µg/mL
